B1: TRIM55 (parent)
chain: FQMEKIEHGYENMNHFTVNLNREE

Variants of: B1
PROTOCOL NOTES: protein stability index of a GFP-peptide fusion (GPS, HEK-293T) (PSI 1-6); higher = more stable;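 further: lentivirally expressed fusions sorted by FACS into six bins by GFP to DsRed ratio, PSI derived from sequencing read proportions per bin multiplied by bin number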
APPLIED CONDITIONS: c terminus: a fixed tail appended
Is protein stability index at least 3? Then Fulfilled. If not, Not fulfilled.

QUERY: State whether the measured protein stability index reaches 3, counting equality as reaching it, for "N14P"
RESULT: Not fulfilled

QUERY: State whether the measured protein stability index reaches 3, counting equality as reaching it, for "F16P"
RESULT: Fulfilled

QUERY: State whether the measured protein stability index reaches 3, counting equality as reaching it, for "V18G"
RESULT: Fulfilled

QUERY: State whether the measured protein stability index reaches 3, counting equality as reaching it, for "N21G"
RESULT: Not fulfilled

QUERY: State whether the measured protein stability index reaches 3, counting equality as reaching it, for "E11C"
RESULT: Not fulfilled

QUERY: State whether the measured protein stability index reaches 3, counting equality as reaching it, for "N21D"
RESULT: Fulfilled

QUERY: State whether the measured protein stability index reaches 3, counting equality as reaching it, for "V18H"
RESULT: Fulfilled

QUERY: State whether the measured protein stability index reaches 3, counting equality as reaching it, for "F16G"
RESULT: Fulfilled

QUERY: State whether the measured protein stability index reaches 3, counting equality as reaching it, for "Q2N"
RESULT: Fulfilled

QUERY: State whether the measured protein stability index reaches 3, counting equality as reaching it, for "L20I"
RESULT: Not fulfilled

QUERY: State whether the measured protein stability index reaches 3, counting equality as reaching it, for "E11W"
RESULT: Not fulfilled

QUERY: State whether the measured protein stability index reaches 3, counting equality as reaching it, for "G9I"
RESULT: Not fulfilled

QUERY: State whether the measured protein stability index reaches 3, counting equality as reaching it, for "R22M"
RESULT: Not fulfilled

QUERY: State whether the measured protein stability index reaches 3, counting equality as reaching it, for "L20D"
RESULT: Fulfilled

QUERY: State whether the measured protein stability index reaches 3, counting equality as reaching it, for "H15A"
RESULT: Not fulfilled

QUERY: State whether the measured protein stability index reaches 3, counting equality as reaching it, for "V18M"
RESULT: Fulfilled

QUERY: State whether the measured protein stability index reaches 3, counting equality as reaching it, for "N19K"
RESULT: Not fulfilled

QUERY: State whether the measured protein stability index reaches 3, counting equality as reaching it, for "Y10Q"
RESULT: Fulfilled

QUERY: State whether the measured protein stability index reaches 3, counting equality as reaching it, for "M3R"
RESULT: Not fulfilled

QUERY: State whether the measured protein stability index reaches 3, counting equality as reaching it, for "N12R"
RESULT: Not fulfilled

QUERY: State whether the measured protein stability index reaches 3, counting equality as reaching it, for "M3T"
RESULT: Fulfilled

QUERY: State whether the measured protein stability index reaches 3, counting equality as reaching it, for "E11N"
RESULT: Not fulfilled

QUERY: State whether the measured protein stability index reaches 3, counting equality as reaching it, for "L20C"
RESULT: Not fulfilled

QUERY: State whether the measured protein stability index reaches 3, counting equality as reaching it, for "K5A"
RESULT: Not fulfilled

QUERY: State whether the measured protein stability index reaches 3, counting equality as reaching it, for "Y10G"
RESULT: Fulfilled

QUERY: State whether the measured protein stability index reaches 3, counting equality as reaching it, for "N21V"
RESULT: Not fulfilled

QUERY: State whether the measured protein stability index reaches 3, counting equality as reaching it, for "H8D"
RESULT: Not fulfilled

QUERY: State whether the measured protein stability index reaches 3, counting equality as reaching it, for "Q2K"
RESULT: Fulfilled

QUERY: State whether the measured protein stability index reaches 3, counting equality as reaching it, for "E23T"
RESULT: Not fulfilled

QUERY: State whether the measured protein stability index reaches 3, counting equality as reaching it, for "V18T"
RESULT: Fulfilled

QUERY: State whether the measured protein stability index reaches 3, counting equality as reaching it, for "I6W"
RESULT: Not fulfilled

QUERY: State whether the measured protein stability index reaches 3, counting equality as reaching it, for "M13F"
RESULT: Not fulfilled

QUERY: State whether the measured protein stability index reaches 3, counting equality as reaching it, for "M3W"
RESULT: Not fulfilled

QUERY: State whether the measured protein stability index reaches 3, counting equality as reaching it, for "V18P"
RESULT: Not fulfilled

QUERY: State whether the measured protein stability index reaches 3, counting equality as reaching it, for "R22I"
RESULT: Not fulfilled

QUERY: State whether the measured protein stability index reaches 3, counting equality as reaching it, for "F16Y"
RESULT: Fulfilled

QUERY: State whether the measured protein stability index reaches 3, counting equality as reaching it, for "H8Q"
RESULT: Not fulfilled

QUERY: State whether the measured protein stability index reaches 3, counting equality as reaching it, for "E4I"
RESULT: Not fulfilled
